- Target desc: Cytochrome P450 2C9 (Homo sapiens) (UniProt P11712)
- Sequence (P11712 whole entry, looked up): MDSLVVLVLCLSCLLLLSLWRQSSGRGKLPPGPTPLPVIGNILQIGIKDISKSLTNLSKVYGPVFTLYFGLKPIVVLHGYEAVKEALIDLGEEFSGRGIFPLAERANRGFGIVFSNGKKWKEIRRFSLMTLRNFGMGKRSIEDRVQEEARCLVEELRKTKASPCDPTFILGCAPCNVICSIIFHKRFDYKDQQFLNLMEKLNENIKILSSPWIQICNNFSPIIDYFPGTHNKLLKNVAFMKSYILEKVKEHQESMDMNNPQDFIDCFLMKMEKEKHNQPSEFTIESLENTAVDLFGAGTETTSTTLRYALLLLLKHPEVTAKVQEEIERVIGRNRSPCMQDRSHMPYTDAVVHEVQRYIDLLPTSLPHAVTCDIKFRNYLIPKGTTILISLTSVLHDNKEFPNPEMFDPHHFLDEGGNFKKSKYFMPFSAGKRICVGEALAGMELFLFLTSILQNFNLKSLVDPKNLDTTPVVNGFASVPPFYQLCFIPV
- Protocol description: Cytochrome P450 Family 2 Subfamily C Member 9 (CYP2C9) small molecule antagonists: luciferase reporter qHTS assay (AID 1671198); also: nearly all actives have a fitted effect of over 50% in size
- Experimental setup: P450-Glo CYP2C9 enzyme assay, luciferin luminescence; series mostly up to 115 µM
Records with an inconclusive call do not appear. Calls of active or inactive are those of the source. Calls follow the shape of the dose curve; as a rule, active = well fitted inhibition curve with a large enough effect in the repeat runs; inconclusive = weak or mixed curves; inactive = no such curve, though single readings can be large or run the other way.
Could you please pick one outcome from this set? true (1) (active), false (0) (inactive)

Here are 5 molecules together with their reported answers.
CC(=O)OCC(CCn1cnc2cnc(N)nc21)COC(C)=O : false (0)
Cc1[nH]c(=O)c(C#N)cc1-c1ccc2nccn2c1 : false (0)
C[N+](C)(C)CCCCCC[N+](C)(C)C : false (0)
O=C(CCCN1CCC(O)(c2cccc(C(F)(F)F)c2)CC1)c1ccc(F)cc1 : false (0)
CC1(C)C(O)C(C)(C)C1O (stereo not given) : false (0)

For this molecule, state the assay outcome: O=C1CC2CC1C1CCCC21 (stereo not given)
false (0)

For this molecule, state the assay outcome: N[C@H]1CN(c2c(F)cc3c(=O)c(C(=O)O)cn(C4C[C@H]4F)c3c2Cl)CC12CC2 (stereo not given in full)
false (0)

For this molecule, state the assay outcome: "CC(C)(O)C#CC(C)(C)O"
false (0)

For this molecule, state the assay outcome: "CO[C@]12C[C@@H](COC(=O)c3cncc(Br)c3)CN(C)[C@@H]1Cc1cn(C)c3cccc2c13"
false (0)

For this molecule, state the assay outcome: "CC(C)CNCC(C)C"
false (0)

For this molecule, state the assay outcome: "CC(C)(CC(=O)O)C(=O)O"
false (0)

For this molecule, state the assay outcome: "CC1(C)CO[C@@H](CC(=O)O)CN1"
false (0)

For this molecule, state the assay outcome: "CCCCCCCCS(=O)(=O)Cl"
true (1)

For this molecule, state the assay outcome: "CCCC(=O)O[C@]1(C(=O)CO)CC[C@H]2[C@@H]3CCC4=CC(=O)CC[C@]4(C)[C@H]3[C@@H](O)C[C@@]21C"
false (0)

For this molecule, state the assay outcome: "CS(=O)(=O)O"
false (0)

For this molecule, state the assay outcome: C[C@H](NC(CCc1ccccc1)C(=O)O)C(=O)N1CCC[C@H]1C(=O)O (stereo not given in full)
false (0)

For this molecule, state the assay outcome: "CC(C)c1cc2c(cc1S(=O)(=O)O)[C@@]1(C)CCC[C@@](C)(C(=O)O)[C@@H]1CC2"
false (0)

For this molecule, state the assay outcome: "CN(C)CCCSc1ccccc1NC(=O)/C=C/c1ccccc1"
false (0)

For this molecule, state the assay outcome: "c1ccc(CC2=NCCN2)cc1"
false (0)

For this molecule, state the assay outcome: FC1(F)C(F)(F)C(F)(F)C2(F)C(F)(F)C(F)(F)C(F)(F)C(F)(F)C2(F)C1(F)F (stereo not given)
false (0)

---

- Protocol description: qHTS assay to identify small molecule agonists of the endoplasmic reticulum stress response signaling pathway - cell viability counter screen (AID 1159517);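 also: HeLa cells carrying an ER stress response element beta-lactamase reporter; % is scaled to controls: 0 for no effect and ±100 for the full control effect; nearly all actives have a fitted effect of over 50% in size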
- Experimental setup: ESRE-bla HeLa viability, CellTiter-Glo luminescence, 5 h; series mostly up to 61 µM
- Excerpt: U.S. Tox21 Program National Center for Advancing Translational Sciences [NCATS] NIH Chemical Genomics Center [NCGC] U.S. Environmental Protection Agency [EPA] National Institutes of Environmental Health Sciences [NIEHS] National Toxicology Program [NTP] U.S. Food and Drug Administration [FDA] Tox21 Assay Overview: Endoplasmic Reticulum (ER) plays an important role in cellular signaling, protein folding/maturation, stress response, lipid biosynthesis, calcium storage and release etc. […]
Results filed as inconclusive are left out. Activity calls are given as the source filed them. The call rests on the fitted dose curve.
Assay readout: activity change, negative = cytotoxicity

Here is how some molecules turned out for activity change, negative = cytotoxicity.
CCOC(=O)CC(C)=O : inactive
CS(=O)(=O)O : inactive
CC(=O)Nc1ccc(S(N)(=O)=O)cc1 : inactive
CO[Si](CCCOCC1CO1)(OC)OC (centres undefined) : inactive
NS(=O)(=O)c1ccccc1Cl : inactive
CC1(C)C(O)C(C)(C)C1O (centres undefined) : inactive

Please go through the list and note activity change, negative = cytotoxicity for each molecule.
1. OCCOc1ccc(OCCO)cc1
2. N[C@H]1CN(c2c(F)cc3c(=O)c(C(=O)O)cn(C4C[C@H]4F)c3c2Cl)CC12CC2 (some centres undefined)

inactive
inactive

Please go through the list and note activity change, negative = cytotoxicity for each molecule.
1. CC(=O)CC(C)(C)C1CCCCC1
2. C1OCOCO1
3. CCCCCCCCCCCCCC=O

inactive
inactive
0.611% [at 6.95 µM] (inactive)

Please go through the list and note activity change, negative = cytotoxicity for each molecule.
1. CC(C)NC(=O)NC(C)C
2. CCN1CCC[C@H]1CNC(=O)c1cc(S(N)(=O)=O)ccc1OC
3. N=c1nc(N2CCCCC2)cc(N)n1O
4. C[N+](C)(C)CCCCCC[N+](C)(C)C

1. inactive
2. inactive
3. inactive
4. inactive

Please go through the list and note activity change, negative = cytotoxicity for each molecule.
1. CC(C)NCCCC1(C(N)=O)c2ccccc2-c2ccccc21
2. O=c1cc(CO)occ1O

["inactive", "inactive"]
